TESTED_ON: Cyclin-dependent kinase 2/G1/S-specific cyclin-E1 (Homo sapiens, UniProt P24941)
ASSAY_NAME: Kinase Inhibition Assay
CONDITIONS_USED: pH 7.6; 22 °C
PROPERTY: IC50 (nM)

Record excerpt, results attached:
COc1ccc(-c2[nH]nc3c2C(=O)c2c(NC(=O)NNC(=O)Nc4ccccc4)cccc2-3)cc1; 19
COc1ccc(-c2[nH]nc3c2C(=O)c2c(NC(=O)NNC(=O)c4cccc(C)c4)cccc2-3)cc1; 13
COc1ccc(-c2[nH]nc3c2C(=O)c2c(NC(=O)NNC(=O)c4ccc(O)c(N)c4)cccc2-3)cc1; 24
COc1ccc(-c2[nH]nc3c2C(=O)c2c(NC(=O)NNC(=O)C(C)C)cccc2-3)cc1; 19
COc1ccc(-c2[nH]nc3c2C(=O)c2c(NC(=O)NNC(=O)CCc4ccc(O)cc4)cccc2-3)cc1; 13

1. COc1ccc(C(=O)NNC(=O)Nc2cccc3c2C(=O)c2c(-c4ccc(OC)cc4)n[nH]c2-3)cc1
2. COc1ccc(-c2[nH]nc3c2C(=O)c2c(NC(=O)NNC(=O)c4cccc([N+](=O)[O-])c4)cccc2-3)cc1
# returns the entry with the larger IC50; inputs 1 and 2 Please reply using the label of the selected record.
2
(2: 24 nM, 1: 15 nM)
